experiment: chemical genetic growth profiling, strain panel (AID 1159580);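 further: tested at 20 µM; growth read once vehicle control cultures reached saturation at 30 °C; 1 = growth at the plate median or of vehicle wells; lower values mean less growth of the strain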; details: S. cerevisiae deletion strains, growth OD, locus YOR083W, strain WHI5, hits give low values
About 2,000 (36%) of roughly 5,500 compounds were called active. Another 18% or so got no clear call; they are omitted. This is one part of the list.
measured.attribute: normalized growth
A bare number is all that is needed in reply.

Worked set:
| compound | experimental.value |
| --- | --- |
| NC(=O)c1cnccn1 | 0.955 |
| O=C(O)CCCCC1SCC2NC(=O)NC21 (stereo unspecified) | 0.992 |
| CN1CCc2cccc3c2C1Cc1ccc(O)c(O)c1-3 (stereo unspecified) | 0.875 |
| COc1cc2c(cc1O)CC1c3c(cc(O)c(OC)c3-2)CCN1C (stereo unspecified) | 0.997 |
| COS(C)(=O)=O | 1.01 |

Shift focus to the following entry.
**Query** Form field: reported normalized growth of `CCOC(N)=O`
**Result** 1
